Every entry's value here was drawn from ChEMBL document CHEMBL1124733.

# Species on record: Canis familiaris
# procedure summary: Maximum observed percent change in action potential duration (APD) at 95% repolarization at 30 uM using standard microelectrode technique in isolated canine cardiac Purkinje fibers
# Format: functional, Canis lupus familiaris, Purkinje fiber
Can you tell me Max delta APD95 for the items I'm about to list?
The answer is to be given in %; state only the numeric part.

Entry CN1CCN(C(=O)c2ccc(-n3ccnc3)cc2)CC1.Cl.Cl , Max delta APD95 reported as 55

Given item CCN(CC)CCN(Cc1ccccc1)C(=O)c1ccc(-n2ccnc2)cc1 , the value recorded as its Max delta APD95 is 65

Notebook: CN1CCN(S(=O)(=O)c2ccc(-n3ccnc3)cc2)CC1 , Max delta APD95 read as 14

For reference, reported Max delta APD95 for O=C(NCCN(Cc1ccccc1)Cc1ccccc1)c1ccc(-n2ccnc2)cc1 stands at 6.5

Documented Max delta APD95 of CCN(CC)CCNC(=O)c1ccc(NS(C)(=O)=O)cc1.Cl [SEMATILIDE HYDROCHLORIDE] : 51
